ASSAY_SYSTEM: human ether-à-go-go-related gene (hERG) potassium channel (human);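 note: peak tail current of the secondary pulse compared with the same well before compound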
PROTOCOL_DESCRIPTION: primary screen, population patch clamp on CHO cells stably expressing hERG; higher = less effect of the substance
The whole screen tested about 310,000 compounds, of which about 14,000 (4.5%) showed an effect of 50% or more. The effect is printed as a negative number. The sample holds strong results, similar compounds and a random draw of the others, so the mix is not that of the screen.
Grouping by measured hERG current change (%, negative = inhibition) at 10uM is done with the following cut points: lo (below -20%), med (-20% to below 10%), hi (10% or more)

Take a look at these entries with their results.
[[record]]
compound = "Cc1cc(C)c2nc(-c3ccccn3)cc(C(=O)Nc3cc(C)on3)c2c1"
assay_system = "human ether-à-go-go-related gene (hERG) potassium channel (human)"
label_value = "hi"

[[record]]
compound = "CCCCOC(=O)C[N+](C)(C)CCOC1CC2CCC1(C)C2(C)C.[Br-] (stereo not drawn)"
assay_system = "human ether-à-go-go-related gene (hERG) potassium channel (human)"
label_value = "lo"

[[record]]
compound = "CCCOC(=O)C[N+](C)(C)CCOC1CC2CCC1(C)C2(C)C.[Br-] (stereo not drawn)"
assay_system = "human ether-à-go-go-related gene (hERG) potassium channel (human)"
label_value = "hi"

[[record]]
compound = "CCCCCCOC(=O)C[N+](C)(C)CCOC1CC2CCC1(C)C2(C)C.[Cl-] (stereo not drawn)"
assay_system = "human ether-à-go-go-related gene (hERG) potassium channel (human)"
label_value = "lo"

[[record]]
compound = "CC(C)CCOC(=O)C[N+](C)(C)CCOC1CC2CCC1(C)C2(C)C.[Cl-] (stereo not drawn)"
assay_system = "human ether-à-go-go-related gene (hERG) potassium channel (human)"
label_value = "med"

[[record]]
compound = "CCOC(=O)C[N+](C)(C)CCOC1CC2CCC1(C)C2(C)C.[Cl-] (stereo not drawn)"
assay_system = "human ether-à-go-go-related gene (hERG) potassium channel (human)"
label_value = "hi"

[[record]]
compound = "CCC(C)OC(=O)C[N+](C)(C)CCOC1CC2CCC1(C)C2(C)C.[Cl-] (stereo not drawn)"
assay_system = "human ether-à-go-go-related gene (hERG) potassium channel (human)"
label_value = "med"


With those in mind, consider the next compound.
Which class is correct for the following compound? `C[C@@H](C(=O)Nc1ccc2ccccc2c1)[C@H]1C[C@]1(C)[C@H](NC(=O)c1cnccn1)c1ccccc1`
med

====

ASSAY_SYSTEM: human ether-à-go-go-related gene (hERG) potassium channel (human, UniProt Q12809);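 note: peak tail current of the secondary pulse compared with the same well before compound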
Sequence (Q12809 whole entry, looked up): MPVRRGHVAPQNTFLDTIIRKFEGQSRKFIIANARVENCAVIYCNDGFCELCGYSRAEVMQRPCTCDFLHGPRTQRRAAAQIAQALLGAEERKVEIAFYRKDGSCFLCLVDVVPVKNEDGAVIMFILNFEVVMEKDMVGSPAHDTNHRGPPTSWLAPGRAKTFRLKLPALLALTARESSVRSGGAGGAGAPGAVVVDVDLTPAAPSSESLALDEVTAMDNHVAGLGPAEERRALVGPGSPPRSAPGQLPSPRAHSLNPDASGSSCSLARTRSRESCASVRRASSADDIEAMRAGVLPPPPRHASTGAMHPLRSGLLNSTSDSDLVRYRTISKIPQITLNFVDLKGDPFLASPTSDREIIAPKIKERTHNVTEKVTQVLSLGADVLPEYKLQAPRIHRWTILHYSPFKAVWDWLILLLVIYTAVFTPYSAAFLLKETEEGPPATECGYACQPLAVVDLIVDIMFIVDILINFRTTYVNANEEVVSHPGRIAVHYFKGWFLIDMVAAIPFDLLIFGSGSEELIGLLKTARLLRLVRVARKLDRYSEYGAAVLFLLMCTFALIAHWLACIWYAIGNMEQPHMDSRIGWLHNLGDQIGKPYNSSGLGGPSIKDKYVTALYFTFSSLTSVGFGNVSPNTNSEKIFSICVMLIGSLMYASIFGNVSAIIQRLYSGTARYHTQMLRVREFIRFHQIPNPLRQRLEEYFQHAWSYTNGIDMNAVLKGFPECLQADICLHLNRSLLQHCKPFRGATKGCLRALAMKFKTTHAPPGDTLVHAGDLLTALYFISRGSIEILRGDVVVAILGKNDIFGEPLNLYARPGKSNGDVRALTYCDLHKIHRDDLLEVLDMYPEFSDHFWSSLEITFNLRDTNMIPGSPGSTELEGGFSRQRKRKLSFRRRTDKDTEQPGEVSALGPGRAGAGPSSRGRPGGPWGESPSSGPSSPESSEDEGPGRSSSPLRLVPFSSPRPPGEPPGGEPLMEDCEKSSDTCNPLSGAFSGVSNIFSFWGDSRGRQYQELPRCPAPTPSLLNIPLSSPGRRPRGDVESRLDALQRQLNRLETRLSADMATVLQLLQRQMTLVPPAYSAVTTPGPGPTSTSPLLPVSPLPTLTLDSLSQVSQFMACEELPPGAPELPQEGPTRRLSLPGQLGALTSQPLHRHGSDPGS
PROTOCOL_DESCRIPTION: primary screen, population patch clamp on CHO cells stably expressing hERG; higher = less effect of the substance
Experimental: Briefly, Chinese hamster ovary (CHO) cells stably expressing the hERG channel were dislodged from tissue culture flasks and dispensed into PPC plates. […] During the recording, background leak currents were estimated by a 100 ms step to -80 mV from an initial holding potential of -70 mV and subtracted from the subsequent current measurement. The campaign was conducted in two phases using slight differences in recording protocol. […]
In all, about 310,000 compounds went through this assay and about 14,000 (4.5%) showed an effect of 50% or more. Effects have a minus sign here. Only a selection was taken, and strong results are over-represented in it overall.
Binary call on hERG current change (%, negative = inhibition) at 10uM: True from -20% upward, False beneath that.

Would you please look over these solved cases?
[[record]]
compound = "O=c1c2[nH]c3ccc(Br)cc3c2ncn1CCCn1ccnc1"
label_value = "False"

[[record]]
compound = "Cl.OC(CNCc1ccncc1)c1ccccc1 (centres unmarked)"
label_value = "True"

[[record]]
compound = "OCCC#Cc1ccc(CN2CCN(Cc3ccccc3)C(CCO)C2)cc1 (centres unmarked)"
label_value = "True"


Here is the next item to consider.
Evaluate `CN(CC(=O)NC(=O)NCc1ccco1)Cc1nc2ccccc2c(=O)[nH]1` : hERG current change (%, negative = inhibition) at 10uM at minimum -20%?
True
